target: hCB1 (Homo sapiens); experiment: bioSensAll ebBRET signaling profiling, hCB1; format: cell-based; parameters: host or cells: HEK293SL cells, transient PEI transfection; conditions: Log [Compound] (M) -10.5529; single replicate values, FigS6a
Sequence (P21554 whole entry): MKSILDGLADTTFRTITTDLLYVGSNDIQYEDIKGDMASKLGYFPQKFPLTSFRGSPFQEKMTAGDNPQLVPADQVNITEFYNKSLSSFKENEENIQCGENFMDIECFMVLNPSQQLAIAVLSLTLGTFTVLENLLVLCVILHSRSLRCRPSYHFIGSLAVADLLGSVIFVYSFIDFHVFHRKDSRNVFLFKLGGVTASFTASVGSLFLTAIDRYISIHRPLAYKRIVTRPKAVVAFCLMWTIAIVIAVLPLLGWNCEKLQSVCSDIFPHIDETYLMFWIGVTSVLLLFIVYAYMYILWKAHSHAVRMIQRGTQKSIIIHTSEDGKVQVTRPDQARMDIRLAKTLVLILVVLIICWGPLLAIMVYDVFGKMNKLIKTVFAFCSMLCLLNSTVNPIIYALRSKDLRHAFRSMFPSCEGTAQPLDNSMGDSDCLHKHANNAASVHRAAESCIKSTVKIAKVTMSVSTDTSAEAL
recorded metric: GoB hCB1

molecule	measured on	value measured
COC(=O)[C@@H]1[C@@H]2CCC[C@@H]2CN1C(=O)c1cc(C)n(-c2cccc(Cl)c2)n1 (racemic)	hCB1 (Homo sapiens)	1.212
Cc1cc(C(=O)N(C)C(c2ccccc2)c2ccco2)nn1-c1cccc(C(F)(F)F)c1 (centres unmarked)	hCB1 (Homo sapiens)	-2.978
Cc1cc(C(=O)N2CC3(CCC3)[C@@H]2[C@@H]2CCCO2)nn1-c1cccc(C(F)(F)F)c1	hCB1 (Homo sapiens)	1.536
Cc1cc(C(=O)N2CC3(CCC3)[C@H]2[C@H]2CCCO2)nn1-c1cccc(C(F)(F)F)c1	hCB1 (Homo sapiens)	1.32
Cc1cc(C(=O)N(C)C(c2ccco2)c2ccco2)nn1-c1cccc(C(F)(F)F)c1	hCB1 (Homo sapiens)	-2.258
Cc1cc(C(=O)NC(c2ccccc2)c2ccco2)nn1-c1cccc(C#N)c1 (centres unmarked)	hCB1 (Homo sapiens)	0.1334
CC(=O)C(c1cccs1)N(C)C(=O)c1cc(C)n(-c2cccc(C(F)(F)F)c2)n1 (centres unmarked)	hCB1 (Homo sapiens)	1.105
COc1cccc(C(NC(=O)c2cc(C)n(-c3cccc(C(F)(F)F)c3)n2)c2ccco2)c1 (centres unmarked)	hCB1 (Homo sapiens)	3.3884

====

biological target: hCB1 (Homo sapiens); assay: GloSensor cAMP accumulation assay; format: cell-based
recorded metric: EC50 (nM)

compound	value measured
COC(=O)C(NC(=O)c1cc(C)n(-c2cccc(C(F)(F)F)c2)n1)c1cccs1 (stereo not shown)	25.2

====

molecular target: hCB1 (Homo sapiens); experiment: bioSensAll ebBRET signaling profiling, hCB1; type: cell-based; design: host or cells: HEK293SL cells, transient PEI transfection; conditions: Log [Compound] (M) -11.9208; single replicate values, FigS6a
Parameter GoB hCB1: see the listing below.

molecule	measured on	GoB hCB1
Cc1cc(C(=O)N2CC3(CCC3)[C@@H]2[C@H]2CCCO2)nn1-c1cccc(C(F)(F)F)c1 (single isomer, unassigned) [compound 430]	hCB1 (Homo sapiens)	2.741
Brc1cc2c(cc1Cc1noc(-c3cnn(CC4CC4)c3)n1)OCO2 [‘5424]	hCB1 (Homo sapiens)	-6.586
Cc1cc(C(=O)NC(c2ccccc2)c2ccco2)nn1-c1cccc(C#N)c1 (centres unmarked) [‘12565]	hCB1 (Homo sapiens)	-1.251
COC(=O)[C@@H]1[C@@H]2CC[C@@H]2CN1C(=O)c1cc(C)n(-c2cccc(C(F)(F)F)c2)n1 [‘6448]	hCB1 (Homo sapiens)	1.266
Cc1cc(C(=O)NC(c2ccccc2)c2ccco2)nn1-c1cccc(C(F)(F)F)c1 (centres unmarked) [‘1081]	hCB1 (Homo sapiens)	3.047
Cc1c(C(=O)OCC2CSc3ccccc3O2)cnn1Cc1ccccc1 (centres unmarked) [‘7800]	hCB1 (Homo sapiens)	-5.683
Cc1cc(C(=O)N2CC3(CCC3)[C@H]2[C@H]2CCCO2)nn1-c1cccc(C(F)(F)F)c1 [‘1651]	hCB1 (Homo sapiens)	3.784
Cc1nc(CC2CC2)oc1-c1nc(Cc2cc3c(cc2Br)OCO3)no1 [‘7019]	hCB1 (Homo sapiens)	-3.392
Cc1cc(C(=O)NC(c2ccco2)c2ccco2)nn1-c1cccc(C(F)(F)F)c1 [‘1090]	hCB1 (Homo sapiens)	2.507
Cc1nn(Cc2ccc(Cl)cc2)c(C)c1C(=O)OCC1CSc2ccccc2O1 (centres unmarked) [‘5463]	hCB1 (Homo sapiens)	-2.853
Cc1cc(C(=O)N(C)C(c2ccccc2)c2ccco2)nn1-c1cccc(C(F)(F)F)c1 (centres unmarked) [‘1082]	hCB1 (Homo sapiens)	0.3312
COC(=O)C(NC(=O)c1cc(C)n(-c2cccc(F)c2)n1)c1cccs1 (centres unmarked) [‘51486]	hCB1 (Homo sapiens)	0.2953
COC(=O)[C@@H]1[C@@H]2CCC[C@@H]2CN1C(=O)c1cc(C)n(-c2cccc(C(F)(F)F)c2)n1 [‘6439]	hCB1 (Homo sapiens)	-0.04642
COc1cccc(C(NC(=O)c2cc(C)n(-c3cccc(C(F)(F)F)c3)n2)c2ccco2)c1 (centres unmarked) [‘1087]	hCB1 (Homo sapiens)	1.033
Cn1nc(-c2nnc(C(C)(C)Oc3ccc(Cl)cc3)o2)c2ccccc2c1=O [‘0450]	hCB1 (Homo sapiens)	-7.454
COC(=O)C(NC(=O)c1cc(C)n(-c2cccc(C(F)(F)F)c2)n1)c1cccs1 (centres unmarked) [‘60154]	hCB1 (Homo sapiens)	-0.2982
CC(=O)C(c1cccs1)N(C)C(=O)c1cc(C)n(-c2cccc(C(F)(F)F)c2)n1 (centres unmarked) [‘6829]	hCB1 (Homo sapiens)	1.392
